# PROTOCOL_SUMMARY: NCI Yeast Anticancer Drug Screen. Data for the rad50 strain (AID 155);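 also: 0% = growth of vehicle-only cultures of the same strain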
# CONDITION_DETAILS: S. cerevisiae rad50 strain growth inhibition; at 50.0 µM (retest, dose inferred, filed as 5.0); hits give high values
About 79,000 compounds went through this panel and 15% of them were active in at least one assay; those are over-represented in the sample as a whole.
OUTCOME_MEASURE: growth inhibition (%)

1. O=C(O)Cc1ccccc1CCc1ccccc1Cl :: 74
2. O=C(CCN(Cc1ccccc1)Cc1ccccc1)c1ccc2ccccc2c1 :: 55
3. CCC[CH2][Sn]([CH2]CCC)([O]C(=O)C(OC(C)=O)c1ccccc1)[O]C(=O)C(OC(C)=O)c1ccccc1 (configuration not stated) :: 98
4. CCCCCC(=O)/C=C/c1ccc(C)cc1 :: -162
5. CCOC(=O)/C(Cl)=C(\OCC)C(=O)OCC :: 10
6. COc1ccccc1/C=C\C(=O)c1ccccc1 :: 89
7. CC1(C(Cl)(Cl)Cl)C=CC(O)(C#CC2(O)C=CC(C)(C(Cl)(Cl)Cl)C=C2)C=C1 (configuration not stated) :: 7
8. CC(=O)N1c2ccccc2C2=NN=C(N(C)C)SC21 (configuration not stated) :: 98
9. Nc1ccc(C2CCC[C@H]2c2ccc(N)cc2)cc1 (some centres not stated) :: 93
10. O=C(/C=C/c1cccc(Cl)c1)c1ccccc1 :: 98
11. CCCCc1ccc2nc(C)cc(N/N=C/c3ccc4c(c3)OCO4)c2c1 :: 20
12. Cc1ccc2c(ccc(CC(=S)[S-])[n+]2C)c1 :: 41
13. CC1=C(/C=C/C(C)=N/NC(N)=S)C(C)(C)CCC1 :: 87
14. S=C(NCCNC(=S)[S][Sn]([c]1ccccc1)([c]1ccccc1)[c]1ccccc1)[S][Sn]([c]1ccccc1)([c]1ccccc1)[c]1ccccc1 :: 93
15. CCN(C(=O)O)c1ccc(/C=C/c2ccnc3ccccc23)cc1 :: 94
16. CN(CC(=O)O)c1ncc2c(n1)-c1ccccc1OC2 :: 13
17. CCCCCCCC1SCC(=O)N1c1nncs1 (configuration not stated) :: 96
18. CCOC1(OCC)Oc2c(Cl)c(Cl)c(Cl)c(Cl)c2OC1(OCC)OCC :: 97
19. Oc1ccccc1C(c1ccccc1O)C(Cl)(Cl)Cl :: 96
20. CC(=O)OCC1(O)OCC(OC(C)=O)C(OC(C)=O)C1OC(C)=O (configuration not stated) :: -21
21. CC12CC(Br)(Br)C(=O)C3C1CCCC32 :: 31
22. CC1CC(C)CC(NC2=NCCO2)C1 (configuration not stated) :: -5
23. O=CNc1ccc2c(c1)Cc1cc(NC=O)ccc1-2 :: 81
24. CN(C)CCC1(C2=CCCC2)CC/C(=C\c2ccccc2Cl)C1=O (configuration not stated) :: 60
25. COC(OC)(c1ccccc1)C(I)I :: 100
26. O=C1CCCc2cc3c(nc21)C(=O)CCC3 :: -3
27. ON=C1c2ccccc2-c2ccccc21 :: 58
28. O=[N+]([O-])c1ccc2c(N=Nc3ccc4ccccc4c3O)c(O)cc(S(=O)(=O)O)c2c1 :: 34
29. OCC(O)C(O)C(O)C(O)C(O)C(/C=N/Nc1ccccc1)=N/Nc1ccccc1 (configuration not stated) :: 81
30. O=[N+]([O-])c1ccc(-c2nc3ccc(F)cc3[nH]2)o1 :: 99
31. NNc1cc([N+](=O)[O-])ccc1Cl :: 93
32. CNC(=N)c1ccc(NC(=N)c2ccc(NC(=O)c3ccc(C(=O)Nc4ccc(C(=N)Nc5ccc(C(=N)NC)cc5)cc4)cc3)cc2)cc1 :: 54
33. O=C(c1ccccc1)C1OC1c1ccccc1Cl (configuration not stated) :: 40
34. C/C(=N\NC(=S)N1CCN(Cc2ccccc2)CC1)c1ccccn1 :: 76
35. Cc1nc2c(=O)[nH]c3ccc(Cl)cc3c2o1 :: 60
36. CCCN(CCC)C(=S)N/N=C(/C)c1ccccc1O :: 98
37. CCC1CCC(CC)C1=O (configuration not stated) :: 5
38. CN(C)/N=C(/CC(O)(C(F)(F)F)C(F)(F)F)c1ccc([N+](=O)[O-])cc1 :: 20
39. C/C(=C\c1ccccc1)c1ccncc1 :: 48
40. Nc1ccc(Cc2ccc(N)cc2[N+](=O)[O-])c([N+](=O)[O-])c1 :: 0
41. NC(=S)N/N=C\c1nccc2c(C(F)(F)C(F)(F)C(F)(F)F)cccc12 :: 61
42. Nc1nc(N)c2nc(CNc3ccc(C(=O)NC(CCC(=O)O)C(=O)O)cc3)cnc2n1 (configuration not stated) :: 30
43. C=C1C(=O)OC2C1CC1OC2C(C)CCC/C(C)=C\CCC1(C)O (configuration not stated) :: 8
44. CCOP(=O)(OCC)/C(=C\NC(=S)N=Nc1c(O)[nH]c2ccccc12)C(=O)OC :: 81
45. O=C1c2ccccc2C(O)(C#Cc2ccccc2)c2cnccc21 (configuration not stated) :: 96
46. O=C(CC(=O)c1ccccc1)CC1(O)CCCCC1 :: 42
47. CCCc1cc(=O)oc2c3c(c4c(c12)OC(C)(C)C=C4)O[C@@H](C)[C@H](C)[C@H]3O :: 91
